Source: patent US20250235453A1

target: Rac1 (Homo sapiens, UniProt P63000); construct: His (N); assay: Rac Activation AlphaScreen Assay (Rac1 AS); type: biochemical; details: Rac1 AS assay, dose leading to 50% disruption of complex; read-out: IC50
pIC50: −log10 of the molar value.
Measured pIC50 by item

O=C(Cc1cccc([N+](=O)[O-])c1)Nc1ccc(-c2ccc3nnc(-c4ccncc4)n3n2)cc1; 4.30 to 5.00

Record request: pIC50 value, item "CCSc1cccc(C(=O)Nc2cccc(-c3ccc4nnc(-c5ccc(C)o5)n4n3)c2)c1"
> 5.00

Record request: pIC50 value, item "O=C(Cc1ccc(Cl)cc1)Nc1ccc(-c2ccc3nnc(-c4ccncc4)n3n2)cc1"
< 4.00

Record request: pIC50 value, item "O=C(Cc1ccc(F)cc1)Nc1ccc(-c2ccc3nnc(-c4ccncc4)n3n2)cc1"
> 5.00
